# credit: the NIST ThermoML archive (doi:10.1016/j.jct.2017.03.004)

Quick reference: activity coefficient of the listed items.
Assay: activity coefficient (dimensionless); of the first substance listed, at infinite dilution; xn = mol fraction of the nth substance listed
Conditions: 358.15 K; 101.33 kPa; Liquid; Chromatography; x1 = 0

{"columns": ["molecule", "activity coefficient"],
 "data": [
  ["C#CCCCC [1-hexyne] + N#C[N-]C#N.OCCC[n+]1ccccc1", 25.2],
  ["C1CCCC1 [cyclopentane] + N#C[N-]C#N.OCCC[n+]1ccccc1", 50.5],
  ["C1COCCO1 [1,4-dioxane] + N#C[N-]C#N.OCCC[n+]1ccccc1", 2.25],
  ["CCO [ethanol] + N#C[N-]C#N.OCCC[n+]1ccccc1", 1.31],
  ["COC(C)=O [methyl ethanoate] + N#C[N-]C#N.OCCC[n+]1ccccc1", 3.84],
  ["C=CCCCCC [1-heptene] + N#C[N-]C#N.OCCC[n+]1ccccc1", 167],
  ["CCCc1ccccc1 [propylbenzene] + N#C[N-]C#N.OCCC[n+]1ccccc1", 31.6],
  ["C=Cc1ccccc1 [styrene] + N#C[N-]C#N.OCCC[n+]1ccccc1", 8.06],
  ["c1ccccc1 [benzene] + N#C[N-]C#N.OCCC[n+]1ccccc1", 5.69],
  ["CC(C)c1ccccc1 [isopropylbenzene] + N#C[N-]C#N.OCCC[n+]1ccccc1", 30.2]
]}

====

Test: activity coefficient (dimensionless); of the first substance listed, at infinite dilution; xn = mol fraction of the nth substance listed
Conditions: 298.15 K; 101.33 kPa; Liquid; Chromatography; x1 = 0

{"columns": ["compound", "activity coefficient"],
 "data": [
  ["CCCCCCCCC [nonane] + N#C[N-]C#N.OCCC[n+]1ccccc1", 1450],
  ["C=CCCCC [hex-1-ene] + N#C[N-]C#N.OCCC[n+]1ccccc1", 130],
  ["C=CCCCCCCCC [1-decene] + N#C[N-]C#N.OCCC[n+]1ccccc1", 1030],
  ["C1CCCC1 [cyclopentane] + N#C[N-]C#N.OCCC[n+]1ccccc1", 67],
  ["C#CCCCCC [1-heptyne] + N#C[N-]C#N.OCCC[n+]1ccccc1", 35.7],
  ["C#CCCC [1-pentyne] + N#C[N-]C#N.OCCC[n+]1ccccc1", 11.1],
  ["C=CCCCCCC [oct-1-ene] + N#C[N-]C#N.OCCC[n+]1ccccc1", 391],
  ["C#CCCCCCC [1-octyne] + N#C[N-]C#N.OCCC[n+]1ccccc1", 67.5],
  ["CCCCCC [hexane] + N#C[N-]C#N.OCCC[n+]1ccccc1", 364],
  ["C1CCCCCC1 [cycloheptane] + N#C[N-]C#N.OCCC[n+]1ccccc1", 161],
  ["CCCCCCCC [octane] + N#C[N-]C#N.OCCC[n+]1ccccc1", 930],
  ["CC(C)CC(C)(C)C [2,2,4-trimethylpentane] + N#C[N-]C#N.OCCC[n+]1ccccc1", 800]
]}

====

Experiment: activity coefficient (dimensionless); of the first substance listed, at infinite dilution; xn = mol fraction of the nth substance listed
Conditions: 348.15 K; 101.33 kPa; Liquid; Chromatography; x1 = 0
Quick reference: activity coefficient of the listed items.
propertyName: activity coefficient

{"columns": ["molecule", "measValue"],
 "data": [
  ["c1ccccc1 [benzene] + N#C[N-]C#N.OCCC[n+]1ccccc1", 5.53],
  ["c1ccncc1 [pyridine] + N#C[N-]C#N.OCCC[n+]1ccccc1", 1.64],
  ["CC(C)CO [2-methyl-1-propanol] + N#C[N-]C#N.OCCC[n+]1ccccc1", 3.15],
  ["C#CCCCC [1-hexyne] + N#C[N-]C#N.OCCC[n+]1ccccc1", 24.3],
  ["CC(C)O [propan-2-ol] + N#C[N-]C#N.OCCC[n+]1ccccc1", 2.15]
]}
